Tested on: OCI-AML2;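 note: after 48 h exposure read by CellTiter-Glo luminescence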
Assay: cell viability relative to vehicle control; higher = less cytotoxic
Details: 10 µM; SRSF2 genotype: P95H/wt
Structures can show the parent of a compound that is named as a salt.
With a cut-off of 80%, any cell viability strictly below it is called yes; any cell viability meeting it or above is called no.

| compound | category-label |
| --- | --- |
| O=C(C=Cc1ccccc1)NC(NC(=S)Nc1ccc(Cl)cc1)C(Cl)(Cl)Cl (stereo not given) | no |
| Cc1cc(C)c(/C=C2\C(=O)Nc3ccccc32)[nH]1 [Semaxanib (SU5416)] | yes |
| OCc1cc([C@@H](O)CNCCCCCCOCCOCc2c(Cl)cccc2Cl)ccc1O [Vilanterol Trifenate] | yes |
| CC(C)(C(=O)O)c1ccc(C(O)CCCN2CCC(C(O)(c3ccccc3)c3ccccc3)CC2)cc1 (stereo not given) [Fexofenadine HCl] | no |
| N=C1S/C(=C\c2ccc(-c3ccc4c(c3)C(=O)NC4=O)o2)C(=O)N1c1ccc(Br)cc1 | no |
| CCCNC[C@]1(O)[C@H](C)O[C@@H](O[C@H]2[C@H](C)[C@@H](O[C@@H]3O[C@H](C)C[C@H](N(C)C)[C@H]3O)[C@](C)(O)C[C@@H](C)CN[C@H](C)[C@@H](O)[C@](C)(O)[C@@H](CC)OC(=O)[C@@H]2C)C[C@@]1(C)OC | no |
| O=C[C@H](O)[C@H]1OC(=O)[C@@H](O)[C@H]1O | no |
| N=C1CCCN1Cc1[nH]c(=O)[nH]c(=O)c1Cl [Tipiracil hydrochloride] | no |
| CC(C)N(CCCNC(=O)Nc1ccc(C(C)(C)C)cc1)C[C@H]1O[C@@H](n2ccc3c(N)ncnc32)[C@H](O)[C@@H]1O | no |
| CCOC(=O)N1CCC(CN(Cc2ccc(Cl)cc2)Cc2ccc([N+](=O)[O-])s2)C1 (stereo not given) [Stenabolic (SR9009)] | yes |
| CC(=O)OCC(=O)[C@@]1(O)CC[C@H]2[C@@H]3CCC4=CC(=O)C=C[C@]4(C)[C@H]3[C@@H](O)C[C@@]21C [Prednisolone acetate (Omnipred)] | yes |
| COc1ccc(/C=C/c2cc(O)cc(O)c2)cc1O | no |
| Fc1ccc2[nH]ccc2c1-c1nc(N2CCOCC2)c2sc(CN3CCN(CC4CC4)CC3)cc2n1 | yes |
| Oc1cc2c(cc1O)[C@@H]1c3ccc(O)c(O)c3OC[C@]1(O)C2 [Hematoxylin (Hydroxybrazilin)] | no |
| CN(C)CCCC1(c2ccc(F)cc2)OCc2cc(C#N)ccc21 (stereo not given) | no |

All values here come from the supplement of paper PMC10981050.
